- System: RAW264.7 mouse macrophages
- protocol notes: Suppression of IFNγ-induced NO production (nitric oxide production and cell viability assay)
- Format: cell-based
- details: RAW264.7 cells, drug pre-treatment 2 hours, then recombinant mouse IFNγ 24 hours; Griess reagent; normalized to cell viability (WST-1)
Label scheme for IC50: low group: < 1 nM; middle group: ≥ 1 nM and < 3 nM; high group: ≥ 3 nM

structure as smiles	study target	class label
CC1(C)CC[C@]2(COC(=O)N3CCCC3)CC[C@]3(C)[C@H](C(=O)C=C4[C@@]5(C)C=C(C#N)C(=O)C(C)(C)[C@@H]5CC[C@]43C)[C@@H]2C1	RAW264.7 mouse macrophages	middle group
CC1(C)CC[C@]2(CCC(=O)Oc3ccccc3)CC[C@]3(C)[C@H](C(=O)C=C4[C@@]5(C)C=C(C#N)C(=O)C(C)(C)[C@@H]5CC[C@]43C)[C@@H]2C1	RAW264.7 mouse macrophages	high group
CC(=O)OCC[C@]12CCC(C)(C)C[C@H]1[C@H]1C(=O)C=C3[C@@]4(C)C=C(C#N)C(=O)C(C)(C)[C@@H]4CC[C@@]3(C)[C@]1(C)CC2	RAW264.7 mouse macrophages	middle group
COC(=O)/C=C/[C@]12CCC(C)(C)C[C@H]1[C@H]1C(=O)C=C3[C@@]4(C)C=C(C#N)C(=O)C(C)(C)[C@@H]4CC[C@@]3(C)[C@]1(C)CC2	RAW264.7 mouse macrophages	high group
CC(C)NC(=O)CC[C@]12CCC(C)(C)C[C@H]1[C@H]1C(=O)C=C3[C@@]4(C)C=C(C#N)C(=O)C(C)(C)[C@@H]4CC[C@@]3(C)[C@]1(C)CC2	RAW264.7 mouse macrophages	low group
CC1(C)CC[C@]2(CCC(=O)OC3CCN(C(=O)OC(C)(C)C)CC3)CC[C@]3(C)[C@H](C(=O)C=C4[C@@]5(C)C=C(C#N)C(=O)C(C)(C)[C@@H]5CC[C@]43C)[C@@H]2C1	RAW264.7 mouse macrophages	high group
CC[C@]12CCC(C)(C)C[C@H]1[C@H]1C(=O)C=C3[C@@]4(C)C=C(C#N)C(=O)C(C)(C)[C@@H]4CC[C@@]3(C)[C@]1(C)CC2	RAW264.7 mouse macrophages	high group
CC1(C)CC[C@]2(CCC(=O)Nc3ccccn3)CC[C@]3(C)[C@H](C(=O)C=C4[C@@]5(C)C=C(C#N)C(=O)C(C)(C)[C@@H]5CC[C@]43C)[C@@H]2C1	RAW264.7 mouse macrophages	middle group
CONC(=O)CC[C@]12CCC(C)(C)C[C@H]1[C@H]1C(=O)C=C3[C@@]4(C)C=C(C#N)C(=O)C(C)(C)[C@@H]4CC[C@@]3(C)[C@]1(C)CC2	RAW264.7 mouse macrophages	low group
CC1(C)CC[C@]2(CCC(=O)Nc3ccccc3)CC[C@]3(C)[C@H](C(=O)C=C4[C@@]5(C)C=C(C#N)C(=O)C(C)(C)[C@@H]5CC[C@]43C)[C@@H]2C1	RAW264.7 mouse macrophages	middle group
CC1(C)CC[C@]2(COC(=O)n3ccnc3)CC[C@]3(C)[C@H](C(=O)C=C4[C@@]5(C)C=C(C#N)C(=O)C(C)(C)[C@@H]5CC[C@]43C)[C@@H]2C1	RAW264.7 mouse macrophages	low group
CC1(C)CC[C@]2(CCC(=O)NC3COC3)CC[C@]3(C)[C@H](C(=O)C=C4[C@@]5(C)C=C(C#N)C(=O)C(C)(C)[C@@H]5CC[C@]43C)[C@@H]2C1	RAW264.7 mouse macrophages	middle group
